Target: Orexin/Hypocretin receptor type 1 (Homo sapiens)
Test: blockers of orexin-A calcium signaling via HCRTR1 – fluorescence, CHO/OX1R cells, Fluo-8 calcium, primary screen (AID 434989);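 note: 0% = orexin A challenge wells and 100% = SB-334867-A antagonist wells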
Settings: Fluo-8 calcium fluorescence, at 5 µM
About 1,400 (0.42%) of roughly 330,000 compounds were called active.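 Rule for the calls: active = inhibition above its plate's threshold, mean inhibition of all tested compounds on the plate plus 3 SD (cut at about 37% in these data); inactive = the rest.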 This is one part of a sample in which actives are shown more often than they occur.
Classes used: true for active, false for inactive

# Compound, Answer Label
rows = [
    ("Cc1cc(-c2csc(N)n2)c(C)n1Cc1ccccc1", "false"),
    ("O=C(Cc1ccc(Cl)c(Cl)c1)Nc1ccc(SC(F)F)cc1", "false"),
    ("Cc1c(NC(=O)C(C)OC(=O)c2ccccc2O)c(=O)n(-c2ccccc2)n1C (configuration not stated)", "false"),
    ("Fc1ccc2cnc(-c3ccccc3)cc2c1", "false"),
    ("COc1cc(/C=C2/SC(=S)N(Cc3ccccc3)C2=O)cc(OC)c1O", "false"),
    ("O=C(CC(O)(C(F)(F)F)C(F)(F)F)Nc1ccc(Cl)c(Cl)c1", "true"),
    ("O=C(CCCOc1ccccc1)NNC(=O)c1ccc(Cl)cc1", "false"),
    ("O=C(COC(=O)c1ccccn1)NNC(=O)c1ccc(Br)cc1", "false"),
    ("COc1cc(/C=C/C(=O)OCC(=O)NC2CC2)cc(OC)c1OC", "false"),
    ("CCOC(=O)N1CCN(C(=O)C2CCN(S(=O)(=O)c3cc(Cl)ccc3OCC)CC2)CC1", "false"),
    ("CSc1ccc(NC(=O)/C=C/C(=O)O)cc1", "false"),
    ("COc1cc(NC(=O)COC(=O)c2ccc([N+](=O)[O-])s2)cc(OC)c1OC", "false"),
    ("O=C(COC(=O)/C=C/c1cccc(Cl)c1)NCc1cccs1", "false"),
    ("Cc1cc(C(=O)NC2CCCc3c2cnn3-c2cccc(C)c2C)c(C)o1 (configuration not stated)", "false"),
    ("O=C(CC1SCCNC1=O)Nc1ccc(Cl)c(Cl)c1 (configuration not stated)", "false"),
    ("O=C1/C(=C\\c2ccsc2)NC(=S)N1c1ccccc1", "false"),
    ("CN(C)c1ccc(/C=C2\\NC(=S)N(Cc3ccccc3)C2=O)cc1", "true"),
    ("COC(=O)c1sc(-c2ccc(C(C)(C)C)cc2)cc1NC(=O)/C=C/C(=O)O", "true"),
    ("O=C1C=C(c2ccc(Cl)cc2)C(=O)N1Nc1ccccc1", "true"),
    ("C=CC[C@H](CC(=O)OC(C)(C)C)C(=O)OC[C@H]1CCCN1C(=O)[C@H](CC=C)CC(=O)N(CCO)Cc1ccccc1", "false"),
    ("COc1ccc(S(=O)(=O)N(C)C[C@H]2Oc3ccc(NS(=O)(=O)c4cccs4)cc3CC(=O)N([C@H](C)CO)C[C@H]2C)cc1", "false"),
    ("Cc1cc2nc3c(=O)n(Cc4ccccc4)c(=O)[nH]c3nc2cc1N", "true"),
]

----------
Molecular target: Orexin/Hypocretin receptor type 1 (Homo sapiens) (UniProt O43613)
Sequence (O43613 whole entry, looked up): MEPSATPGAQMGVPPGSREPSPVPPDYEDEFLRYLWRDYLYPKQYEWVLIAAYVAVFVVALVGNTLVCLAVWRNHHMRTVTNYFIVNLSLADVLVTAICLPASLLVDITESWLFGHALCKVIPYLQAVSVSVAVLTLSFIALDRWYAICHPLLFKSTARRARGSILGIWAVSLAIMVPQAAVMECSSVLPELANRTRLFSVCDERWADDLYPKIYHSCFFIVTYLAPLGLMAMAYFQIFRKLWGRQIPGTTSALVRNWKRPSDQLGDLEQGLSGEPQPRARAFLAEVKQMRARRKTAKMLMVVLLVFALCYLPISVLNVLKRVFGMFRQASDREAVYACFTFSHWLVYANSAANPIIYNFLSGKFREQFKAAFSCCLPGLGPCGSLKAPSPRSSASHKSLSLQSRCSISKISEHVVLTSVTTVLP
Experiment: blockers of orexin-A calcium signaling via HCRTR1 – fluorescence, CHO/OX1R cells, Fluo-8 calcium, primary screen (AID 434989);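 note: 0% = orexin A challenge wells and 100% = SB-334867-A antagonist wells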
Settings: Fluo-8 calcium fluorescence, at 5 µM, active compounds read high
In all, about 330,000 compounds went through this assay and about 1,400 (0.42%) were called active. Only a selection was taken, and actives are over-represented in it overall.

# Item Smiles, Endpoint Unit, inhibition
measured = [
    ("COc1ccc(C2=Nn3c(nnc3-c3ccccc3OC)SC2)cc1OC1CCCC1", "%", -19.5),
    ("COc1ccc(CNc2nc(NCc3ccc(OC)cc3)c3ncn(C4CCCC4)c3n2)cc1", "%", -5.92),
    ("Cc1cc(N2CCCC2=O)cc(C)c1S(N)(=O)=O", "%", 44.7),
    ("CN(C)S(=O)(=O)c1ccc(N2CCCC2=O)c([N+](=O)[O-])c1", "%", -12.1),
    ("COc1ccccc1N(CCOc1ccccc1)S(=O)(=O)c1ccccc1", "%", -0.89),
    ("CCCCNc1c(-c2ccc(OC)c(Sc3ccc(OC)cc3)c2)nc2ccc(Cl)cn12", "%", -30.4),
]

----------
Listing of recorded inhibition by entry.
Target: Orexin/Hypocretin receptor type 1 (Homo sapiens) (UniProt O43613)
Experiment: blockers of orexin-A calcium signaling via HCRTR1 – fluorescence, CHO/OX1R cells, Fluo-8 calcium, primary screen (AID 434989);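 note: 0% = orexin A challenge wells and 100% = SB-334867-A antagonist wells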
Details: Fluo-8 calcium fluorescence, at 5 µM, active compounds read high
The campaign covered roughly 330,000 compounds. About 1,400 (0.42%) were called active. The sample as a whole holds a higher share of actives than the screen did.
Quantity Name: inhibition (%)

# Molecule, Quantity Name, Value Measured
measured = [
    ("Cc1ccc(NC(=O)C2CCCN2S(=O)(=O)c2cccc3cccnc23)c(C)c1 (configuration not stated)", "inhibition", -30.7),
    ("Cc1cccc(OCC(=O)OCC(=O)Nc2ccc(Cl)cn2)c1", "inhibition", -10.8),
    ("Cc1ccc(N2C(=O)N3[C@@H]4c5ccccc5OC[C@@H]4[C@@H](c4ccccc4)[C@@]3(C)C2=O)cc1", "inhibition", -30.9),
    ("COc1ccc(NC(=O)C2CCCN(S(=O)(=O)c3cccc4cccnc34)C2)cc1OC (configuration not stated)", "inhibition", -27.1),
    ("CCOC(=O)[C@H]1[C@H]2COc3ccccc3[C@@H]2N2C(=O)CN(Cc3ccccc3)C(=O)[C@@]12C", "inhibition", -30.6),
    ("Cc1ccc(NC(=O)c2ccc(Cl)nc2)cc1S(=O)(=O)N1CCOCC1", "inhibition", -13.6),
    ("O=C(Nc1nccs1)C1CCCN1S(=O)(=O)c1cccc2cccnc12 (configuration not stated)", "inhibition", -11.2),
]

----------
Biological target: Orexin/Hypocretin receptor type 1 (Homo sapiens) (UniProt O43613)
Test: blockers of orexin-A calcium signaling via HCRTR1 – fluorescence, CHO/OX1R cells, Fluo-8 calcium, primary screen (AID 434989);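 note: 0% = orexin A challenge wells and 100% = SB-334867-A antagonist wells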
Conditions: Fluo-8 calcium fluorescence, at 5 µM, active compounds read high
Among all 330,000 compounds or so, about 1,400 (0.42%) were called active. The sample as a whole holds a higher share of actives than the screen did.
# if value of inhibition reaches -10%, tag 1; if it stays below, tag 0

# Molecule, System Under Test, Answer Label
measured = [
    ("Cc1ccc(-n2[nH]c(C)c(/C=N/NC(=O)c3cccc([N+](=O)[O-])c3)c2=O)cc1C", "Orexin/Hypocretin receptor type 1 (Homo sapiens) (UniProt O43613)", 1),
    ("CN[C@H](C(=O)NC[C@H]1O[C@@H](n2cnc3c(N)ncnc32)[C@H](O)[C@@H]1O)[C@@H](C)OCc1ccccc1", "Orexin/Hypocretin receptor type 1 (Homo sapiens) (UniProt O43613)", 0),
    ("O=C(CSc1nnc(-c2ccncc2)o1)Nc1cccc(Cl)c1", "Orexin/Hypocretin receptor type 1 (Homo sapiens) (UniProt O43613)", 1),
    ("Cn1c2ccccc2c(=O)c2c(=O)n(Cc3ccco3)c(COc3ccccc3)nc21", "Orexin/Hypocretin receptor type 1 (Homo sapiens) (UniProt O43613)", 0),
    ("COc1ccccc1CNC(=O)c1ccc(Cl)c(S(=O)(=O)N2CCCC2)c1", "Orexin/Hypocretin receptor type 1 (Homo sapiens) (UniProt O43613)", 0),
    ("O=C(CN1C(=O)NC2(CCCCC2)C1=O)NCCc1c[nH]c2ccccc12", "Orexin/Hypocretin receptor type 1 (Homo sapiens) (UniProt O43613)", 0),
    ("CCCc1nc2c(c(=O)c3ccccc3n2C)c(=O)n1C1CCCCCC1", "Orexin/Hypocretin receptor type 1 (Homo sapiens) (UniProt O43613)", 1),
    ("C=CC[C@H](CC(=O)NCCO)C(=O)N[C@@H](COC(=O)[C@@H](CC=C)Cc1ccc(F)cc1)Cc1c[nH]c2ccccc12", "Orexin/Hypocretin receptor type 1 (Homo sapiens) (UniProt O43613)", 0),
    ("Cc1ccc(-n2[nH]c(C)c(/C=N/N3C(=O)c4cccc5cccc(c45)C3=O)c2=O)cc1", "Orexin/Hypocretin receptor type 1 (Homo sapiens) (UniProt O43613)", 0),
    ("COC(=O)Cn1cc(/C=C/[N+](=O)[O-])c2ccccc21", "Orexin/Hypocretin receptor type 1 (Homo sapiens) (UniProt O43613)", 1),
    ("O=C(NC(=S)Nc1ccc(Br)cc1F)C1CCCCC1", "Orexin/Hypocretin receptor type 1 (Homo sapiens) (UniProt O43613)", 1),
    ("O=C(NNS(=O)(=O)c1c(F)cc(F)c(Cl)c1F)C12CC3CC(CC(C3)C1)C2", "Orexin/Hypocretin receptor type 1 (Homo sapiens) (UniProt O43613)", 1),
    ("N#C/C(=C/c1ccc(N2CCCCC2)o1)C(=O)NCCc1c[nH]c2ccccc12", "Orexin/Hypocretin receptor type 1 (Homo sapiens) (UniProt O43613)", 1),
    ("Cc1ccc(NC(=O)OCc2cncs2)cc1", "Orexin/Hypocretin receptor type 1 (Homo sapiens) (UniProt O43613)", 1),
    ("Cc1nn(-c2ccccc2)nc1C(=O)OCC(=O)N1CCCCC1C (stereo not given)", "Orexin/Hypocretin receptor type 1 (Homo sapiens) (UniProt O43613)", 0),
    ("CCN1/C(=C\\c2ccc3ccccc3[n+]2CC)Sc2cc(C)ccc21", "Orexin/Hypocretin receptor type 1 (Homo sapiens) (UniProt O43613)", 1),
    ("COc1ccc(NS(=O)(=O)c2ccc(NC(=S)NC(=O)CC(C)C)cc2)cc1", "Orexin/Hypocretin receptor type 1 (Homo sapiens) (UniProt O43613)", 1),
    ("CN(Cc1ccccc1)C(=O)COC(=O)/C=C/c1ccc2c(c1)OCO2", "Orexin/Hypocretin receptor type 1 (Homo sapiens) (UniProt O43613)", 0),
    ("Cc1noc(C)c1NC(=O)Nc1cccc2c1O[C@H](CN(C)C(=O)Nc1ccccc1)[C@@H](C)CN([C@H](C)CO)C2=O", "Orexin/Hypocretin receptor type 1 (Homo sapiens) (UniProt O43613)", 1),
    ("CC(=O)Nc1ccc(S(=O)(=O)NCC(=O)OCC(=O)c2ccc[nH]2)cc1", "Orexin/Hypocretin receptor type 1 (Homo sapiens) (UniProt O43613)", 1),
]
